Test system: 786-0
Test: NCI tumour cell line growth inhibition, 48 h
Activity calls are given as the source filed them. Cut-off read from the data, not from the text of the source: active = GI50 up to about 1.1 µM and inactive = higher.
In this exercise, the only acceptable responses are T for active, F for inactive

Input: Status in this test for [O-]c1c2cc(-[n+]3c(-c4ccccc4)cc(-c4ccccc4)cc3-c3ccccc3)cc1CO[C@@H](c1ccccc1)[C@H](c1ccccc1)OCCOCCO[C@@H](c1ccccc1)[C@H](c1ccccc1)OC2 ?
Output: T

Input: Test call for this compound, please: Cc1nnc2n1N=C(c1ccccc1)/C(=C/c1ccc(-c3ccc(Cl)cc3)o1)S2
Output: F

Input: Assay outcome for Cc1ccc(NC(=O)C(=O)CC(=O)c2ccccc2)cc1C : what was it?
Output: F

Input: Look up the recorded call for CCCCCCCCCCCCCCCCOP(=O)([O-])OCC[N+](C)(C)C1CC(C)(C)N(O)C(C)(C)C1 in this test.
Output: F

Input: Tell me the recorded outcome of this test for O=C1N/C(=N/N=C/C(O)C(O)C(O)C(O)CO)N/C1=C\c1ccco1 (centres undefined) .
Output: F

Input: // outcome(item) with item = CC(=O)OCC1OC(OC2CC3C(C)(C)C(O)CC[C@]3(C)C3CCC45CC4(CCC5[C@@H](C)CC(O)C(O)C(C)(C)O)[C@]23C)C(O)C(O)C1O (some centres undefined)
Output: F

Input: Per the records of this test, what outcome belongs to O=C1CCC(C(=O)O)C2=C1CCCC2 (centres undefined) ?
Output: F

Input: Could you kindly confirm the outcome this assay logged for C/C=C(\C)CC/C=C/CO[Si](C)(C)C(C)(C)C ?
Output: F

Input: Recorded test outcome, item N=NCC(=O)OC(COCc1ccccc1)COCc1ccccc1
Output: F
